Parameter 'readout' = IC50; parameter 'system' = Glutamate receptor ionotropic, NMDA 2B (Rattus norvegicus, UniProt Q00960).
Sequence (Q00960 whole entry): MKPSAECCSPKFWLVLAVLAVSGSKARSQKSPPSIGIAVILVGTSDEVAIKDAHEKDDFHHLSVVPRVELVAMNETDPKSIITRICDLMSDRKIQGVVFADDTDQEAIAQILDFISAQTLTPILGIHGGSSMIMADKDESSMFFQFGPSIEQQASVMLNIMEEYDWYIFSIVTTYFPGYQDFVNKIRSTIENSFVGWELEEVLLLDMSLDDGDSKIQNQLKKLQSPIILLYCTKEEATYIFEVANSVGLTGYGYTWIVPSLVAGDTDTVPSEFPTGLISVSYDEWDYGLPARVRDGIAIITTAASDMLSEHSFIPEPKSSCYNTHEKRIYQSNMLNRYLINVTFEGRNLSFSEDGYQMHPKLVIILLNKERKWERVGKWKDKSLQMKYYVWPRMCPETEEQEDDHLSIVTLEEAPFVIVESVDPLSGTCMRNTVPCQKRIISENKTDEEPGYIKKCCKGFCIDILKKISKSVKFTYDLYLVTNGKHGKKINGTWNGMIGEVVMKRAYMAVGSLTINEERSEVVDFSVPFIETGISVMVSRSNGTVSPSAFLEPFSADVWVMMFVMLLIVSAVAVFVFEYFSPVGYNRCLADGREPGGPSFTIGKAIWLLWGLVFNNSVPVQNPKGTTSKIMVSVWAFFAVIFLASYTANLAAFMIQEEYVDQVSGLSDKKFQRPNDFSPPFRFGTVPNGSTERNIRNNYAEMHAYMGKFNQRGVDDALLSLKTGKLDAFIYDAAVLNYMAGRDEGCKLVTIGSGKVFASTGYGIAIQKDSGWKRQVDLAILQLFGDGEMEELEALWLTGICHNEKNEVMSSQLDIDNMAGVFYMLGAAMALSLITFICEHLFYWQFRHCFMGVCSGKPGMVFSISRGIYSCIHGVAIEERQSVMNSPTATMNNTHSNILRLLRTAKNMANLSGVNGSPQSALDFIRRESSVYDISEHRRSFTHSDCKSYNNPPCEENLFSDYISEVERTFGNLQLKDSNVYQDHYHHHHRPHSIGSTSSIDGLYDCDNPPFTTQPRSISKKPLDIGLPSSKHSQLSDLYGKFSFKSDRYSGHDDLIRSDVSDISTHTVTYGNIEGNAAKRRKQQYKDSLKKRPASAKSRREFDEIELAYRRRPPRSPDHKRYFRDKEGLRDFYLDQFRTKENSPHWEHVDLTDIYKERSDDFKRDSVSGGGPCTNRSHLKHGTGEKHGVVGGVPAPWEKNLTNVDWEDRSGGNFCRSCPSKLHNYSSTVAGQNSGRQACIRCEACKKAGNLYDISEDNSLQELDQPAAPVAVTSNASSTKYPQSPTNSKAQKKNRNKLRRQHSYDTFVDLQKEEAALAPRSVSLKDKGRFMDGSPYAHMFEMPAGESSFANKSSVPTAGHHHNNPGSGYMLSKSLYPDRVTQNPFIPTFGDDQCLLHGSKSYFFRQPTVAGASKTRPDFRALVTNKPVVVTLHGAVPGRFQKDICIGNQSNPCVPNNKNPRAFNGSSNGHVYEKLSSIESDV
ASSAY_METRIC: IC50 (µM)

1. Cc1ccc(CC2CCN(CC(=O)c3c[nH]c4ccc(O)cc34)CC2)cc1C | 3.33
2. COc1ccc(CC2CCN(CC(=O)c3c[nH]c4ccc(O)cc34)CC2)cc1 | 1.28
3. Cc1ccc(CC2CCN(CC(=O)c3c[nH]c4ccc(O)cc34)CC2)cc1 | 0.083
